# target-under-test: T1, Human OSCAR (osteoclast-associated receptor), full length, on cells (human)
# T1 chain: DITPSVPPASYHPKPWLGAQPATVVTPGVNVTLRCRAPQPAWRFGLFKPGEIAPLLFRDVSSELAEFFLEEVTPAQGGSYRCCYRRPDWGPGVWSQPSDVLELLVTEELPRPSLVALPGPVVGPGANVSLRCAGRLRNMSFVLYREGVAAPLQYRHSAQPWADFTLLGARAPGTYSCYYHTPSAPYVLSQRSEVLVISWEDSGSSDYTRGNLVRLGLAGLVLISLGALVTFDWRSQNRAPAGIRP
# assay-explanation: cell-based or functional assay
property-label: IC50 (IL-8), ColI-induced IL-8 release from moDC, Donor 1 (nM)
Expressed in nM, but write only the number.

Task: Please give the measured IC50 (IL-8), ColI-induced IL-8 release from moDC, Donor 1 for this binder: 7F10A1 (antibody, V domains shown, Mouse anti-human OSCAR mAb; The heavy chain entry covers only VH-CH1 and the start of the hinge) VH: QVQLQQSGAELARPGASVKLSCKASGYTFTDNYINWVKQRTGQGLEWIGEIYPGSGNTYYNEKFKGKATLTADKSSSTAYMQLSSLTSEDSAVYFCARSANRYDRGDFDYWGQGTPLTVSS VL: QILLTQSPAIMSASPGEKVTMTCSASSSVSYMHWYQQKPGSSPKPWIYDTSNLASGFPARFSGSGSGTSYSLIISSMEAEDAATYYCHQRSSYPYTFGGGTKLEIKR
Output: 0.49

Cited source: patent US20140056918A1
